# experimental_system: T1, CD3 (antigen of the anti-CD3 antibody, coated in the ELISA of Examples 1-3) (Homo sapiens (Human), UniProt P07766 23-126)
# T1 construct: also called antibody antigen
# T1 sequence (P07766 23-126 limits assumed, form in doubt): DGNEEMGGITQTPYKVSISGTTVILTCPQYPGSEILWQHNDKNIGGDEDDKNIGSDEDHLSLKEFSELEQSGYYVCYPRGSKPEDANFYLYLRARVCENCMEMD
# assay_procedure: binding activity of the conjugated mutant compared with the wild-type antibody (ELISA as in Example 1)
reported_endpoint: Blocking fold after conjugation (+20K)
A complete answer gives the number followed by the unit.

Take a look at these entries with their results.
binder | reported_endpoint | endpoint_value
anti-CD3 antibody mutant VH-W111C conjugated with Molecule I (+20K) (antibody, V domains shown, Cys 111 conjugated with Molecule I (+20K), also called VH-111 W111 (+20K)) VH: EVQLVESGGGLVQPGGSLRLSCAASGFTFSTYAMNWVRQAPGKGLEWVGRIRSKYNNYATYYADSVKDRFTISRDDSKNSLYLQMNSLKTEDTAVYYCARHGNFGNSYVSCFAYWGQGTLVTVSS VL: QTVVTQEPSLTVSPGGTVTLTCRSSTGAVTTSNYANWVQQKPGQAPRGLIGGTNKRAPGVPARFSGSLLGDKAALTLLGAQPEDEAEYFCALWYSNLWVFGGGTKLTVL | Blocking fold after conjugation (+20K) | 6 fold
anti-CD3 antibody mutant VH-Y61C conjugated with Molecule I (+20K) (antibody, V domains shown, Cys 61 conjugated with Molecule I (+20K), also called VH-61 Y61 (+20K)) VH: EVQLVESGGGLVQPGGSLRLSCAASGFTFSTYAMNWVRQAPGKGLEWVGRIRSKYNNYATCYADSVKDRFTISRDDSKNSLYLQMNSLKTEDTAVYYCARHGNFGNSYVSWFAYWGQGTLVTVSS VL: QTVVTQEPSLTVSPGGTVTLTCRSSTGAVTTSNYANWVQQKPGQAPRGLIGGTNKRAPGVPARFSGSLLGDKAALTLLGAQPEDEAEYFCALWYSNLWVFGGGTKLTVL | Blocking fold after conjugation (+20K) | 400 fold
anti-CD3 antibody mutant VH-S53C conjugated with Molecule I (+20K) (antibody, V domains shown, Cys 53 conjugated with Molecule I (+20K), also called VH-53 S53 (+20K)) VH: EVQLVESGGGLVQPGGSLRLSCAASGFTFSTYAMNWVRQAPGKGLEWVGRIRCKYNNYATYYADSVKDRFTISRDDSKNSLYLQMNSLKTEDTAVYYCARHGNFGNSYVSWFAYWGQGTLVTVSS VL: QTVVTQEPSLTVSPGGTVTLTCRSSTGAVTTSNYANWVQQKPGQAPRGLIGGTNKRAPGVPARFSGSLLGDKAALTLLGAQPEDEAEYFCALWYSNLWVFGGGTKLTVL | Blocking fold after conjugation (+20K) | 3 fold
anti-CD3 antibody mutant VL-Y34C conjugated with Molecule I (+20K) (antibody, V domains shown, Cys 34 conjugated with Molecule I (+20K), also called VL-34 Y34 (+20K)) VH: EVQLVESGGGLVQPGGSLRLSCAASGFTFSTYAMNWVRQAPGKGLEWVGRIRSKYNNYATYYADSVKDRFTISRDDSKNSLYLQMNSLKTEDTAVYYCARHGNFGNSYVSWFAYWGQGTLVTVSS VL: QTVVTQEPSLTVSPGGTVTLTCRSSTGAVTTSNCANWVQQKPGQAPRGLIGGTNKRAPGVPARFSGSLLGDKAALTLLGAQPEDEAEYFCALWYSNLWVFGGGTKLTVL | Blocking fold after conjugation (+20K) | 8 fold

Request the reported Blocking fold after conjugation (+20K) associated with anti-CD3 antibody mutant VL-R56C conjugated with Molecule I (+20K) (antibody, V domains shown, Cys 56 conjugated with Molecule I (+20K), also called VL-56 R56 (+20K)) VH: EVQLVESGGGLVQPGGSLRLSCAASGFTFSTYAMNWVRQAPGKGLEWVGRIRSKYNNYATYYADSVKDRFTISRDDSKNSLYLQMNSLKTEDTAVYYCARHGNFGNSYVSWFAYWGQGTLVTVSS VL: QTVVTQEPSLTVSPGGTVTLTCRSSTGAVTTSNYANWVQQKPGQAPRGLIGGTNKCAPGVPARFSGSLLGDKAALTLLGAQPEDEAEYFCALWYSNLWVFGGGTKLTVL
6 fold
